Would you kindly list Ki for each of these compounds?
- Study target: mutated (E4Q, A5T) hMCHR1 receptor (Homo sapiens, UniProt Q99705, A5T/E4Q)
- Sequence (Q99705 whole entry E4Q/A5T): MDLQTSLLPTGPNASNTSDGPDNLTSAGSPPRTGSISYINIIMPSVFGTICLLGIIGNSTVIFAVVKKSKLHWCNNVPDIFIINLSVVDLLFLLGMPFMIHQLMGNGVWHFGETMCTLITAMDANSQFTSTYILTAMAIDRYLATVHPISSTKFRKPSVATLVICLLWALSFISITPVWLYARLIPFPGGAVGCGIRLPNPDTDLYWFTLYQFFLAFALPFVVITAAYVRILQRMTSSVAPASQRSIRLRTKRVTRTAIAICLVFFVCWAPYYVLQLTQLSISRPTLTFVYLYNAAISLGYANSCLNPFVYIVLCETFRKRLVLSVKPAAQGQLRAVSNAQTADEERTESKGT
- Measurement protocol: Radioligand binding assay for assessment of MCHR1 activity
- Protocol conditions: competition vs [Phe13,[125I]Tyr19]-MCH, HEK-293 membranes
Give bare numbers, in nM.

Solved cases (2 shown):
[
  {
    "Compound": "COc1cc(-n2cnc3cc(-c4ccc(Cl)cc4)sc3c2=O)ccc1OCC1(O)CC(F)(F)C1",
    "Study target": "mutated (E4Q, A5T) hMCHR1 receptor (Homo sapiens, UniProt Q99705, A5T/E4Q)",
    "Ki / nM": 18
  },
  {
    "Compound": "COc1cc(-n2cnc3cc(-c4ccc(Cl)cc4)sc3c2=O)ccc1OC[C@H](O)C1CC1",
    "Study target": "mutated (E4Q, A5T) hMCHR1 receptor (Homo sapiens, UniProt Q99705, A5T/E4Q)",
    "Ki / nM": 10
  }
]

I'm hoping you can list Ki for every compound here, please.
1. COc1cc(-n2cnc3cc(-c4ccc(Cl)cc4)sc3c2=O)ccc1OCC(C)(C)O
2. CCS(=O)(=O)CC(O)COc1ccc(-n2cnc3cc(-c4ccc(Cl)cc4)sc3c2=O)cc1OC (stereo not drawn)
3. COc1cc(-n2cnc3cc(-c4ccc(Cl)cc4)sc3c2=O)ccc1OCC(O)CC(F)(F)F (stereo not drawn)
4. CCC(O)COc1ccc(-n2cnc3cc(-c4ccc(Cl)cc4)sc3c2=O)cc1OC (stereo not drawn)

[12, 8, 11, 12]

====

- Measurement protocol: Full PK study in dog (half-life)
- Protocol conditions: in vivo, Dog Half-life (hr)
Would you kindly list half-life for each of these compounds?

Solved cases (2 shown):
[
  {
    "Compound": "COc1cc(-n2cnc3cc(-c4ccc(Cl)cc4)sc3c2=O)ccc1OCC(C)(C)O [f]",
    "Measured result": "> 12000 min"
  },
  {
    "Compound": "COc1cc(-n2cnc3cc(-c4ccc(Cl)cc4)sc3c2=O)ccc1OCC1(O)CC(F)(F)C1 [IB]",
    "Measured result": "< 1200 min"
  }
]

Moving on to another compound below.
Measured half-life of COc1cc(-n2cnc3cc(-c4ccc(Cl)cc4)sc3c2=O)ccc1OC[C@H](O)C1CC1 [IA] : < 1200 min

====

- Measurement protocol: One month rat study, formation of biliary lesions
- Assay type: in vivo
- Protocol conditions: rats
Measurement label: Formation of Biliary Lesions

[
  {
    "Compound": "COc1cc(-n2cnc3cc(-c4ccc(Cl)cc4)sc3c2=O)ccc1OCC1(O)CC(F)(F)C1",
    "Formation of Biliary Lesions": "No"
  },
  {
    "Compound": "COc1cc(-n2cnc3cc(-c4ccc(Cl)cc4)sc3c2=O)ccc1OCC(O)CC(F)(F)F (stereo not shown)",
    "Formation of Biliary Lesions": "No"
  },
  {
    "Compound": "COc1cc(-n2cnc3cc(-c4ccc(Cl)cc4)sc3c2=O)ccc1OCC(C)(C)O",
    "Formation of Biliary Lesions": "Yes"
  },
  {
    "Compound": "CCC(O)COc1ccc(-n2cnc3cc(-c4ccc(Cl)cc4)sc3c2=O)cc1OC (stereo not shown)",
    "Formation of Biliary Lesions": "No"
  },
  {
    "Compound": "CCS(=O)(=O)CC(O)COc1ccc(-n2cnc3cc(-c4ccc(Cl)cc4)sc3c2=O)cc1OC (stereo not shown)",
    "Formation of Biliary Lesions": "No"
  }
]

I'm hoping you can list Formation of Biliary Lesions for every compound here, please.
1. COc1cc(-n2cnc3cc(-c4ccc(Cl)cc4)sc3c2=O)ccc1OC[C@H](O)C1CC1
2. COc1cc(-n2cnc3cc(-c4ccc(Cl)cc4)sc3c2=O)ccc1OCC1(O)COC1

1: No; 2: Yes

====

Would you kindly list Efficacy at 30 mg/kg (weight loss in young growing rats) for each of these compounds?
- Study target: MCHR (Rattus norvegicus, UniProt P97639)
- Construct: from tissue; host or cells: whole animal: male Sprague Dawley / Charles River rats
- Sequence (P97639 whole entry): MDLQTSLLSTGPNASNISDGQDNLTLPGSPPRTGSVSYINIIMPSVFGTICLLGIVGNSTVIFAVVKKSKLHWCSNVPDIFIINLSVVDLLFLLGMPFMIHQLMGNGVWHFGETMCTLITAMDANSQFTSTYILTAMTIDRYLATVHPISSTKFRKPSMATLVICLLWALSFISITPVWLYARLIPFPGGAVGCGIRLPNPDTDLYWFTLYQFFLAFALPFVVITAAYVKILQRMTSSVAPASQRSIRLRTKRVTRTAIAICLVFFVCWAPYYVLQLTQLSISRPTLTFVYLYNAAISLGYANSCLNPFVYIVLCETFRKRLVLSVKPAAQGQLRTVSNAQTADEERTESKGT
- Measurement protocol: Assessment of in vivo MCHR activity in young growing rats (four day efficacy model)
- Protocol conditions: 30 mg/kg daily p.o. of ester prodrug, four day model

[
  {
    "Compound": "COc1cc(-n2cnc3cc(-c4ccc(Cl)cc4)sc3c2=O)ccc1OCC(C)(C)O [f]",
    "Measured result": "8.2%"
  },
  {
    "Compound": "COc1cc(-n2cnc3cc(-c4ccc(Cl)cc4)sc3c2=O)ccc1OC[C@H](O)C1CC1 [IA]",
    "Measured result": "6.4%"
  },
  {
    "Compound": "COc1cc(-n2cnc3cc(-c4ccc(Cl)cc4)sc3c2=O)ccc1OCC1(O)COC1 [b]",
    "Measured result": "0%"
  },
  {
    "Compound": "CCC(O)COc1ccc(-n2cnc3cc(-c4ccc(Cl)cc4)sc3c2=O)cc1OC (stereo not shown) [c]",
    "Measured result": "4.1%"
  },
  {
    "Compound": "CCS(=O)(=O)CC(O)COc1ccc(-n2cnc3cc(-c4ccc(Cl)cc4)sc3c2=O)cc1OC (stereo not shown) [e]",
    "Measured result": "4.5%"
  },
  {
    "Compound": "COc1cc(-n2cnc3cc(-c4ccc(Cl)cc4)sc3c2=O)ccc1OCC(O)CC(F)(F)F (stereo not shown) [d]",
    "Measured result": "3.2%"
  }
]

Moving on to another compound below.
Measured Efficacy at 30 mg/kg (weight loss in young growing rats) of COc1cc(-n2cnc3cc(-c4ccc(Cl)cc4)sc3c2=O)ccc1OCC1(O)CC(F)(F)C1 [IB] : 7.9%

====

Would you kindly list AUC for each of these molecules?
- Measurement protocol: Rat PK model / eight hour PK study after oral prodrug ester
- Format: in vivo
- Protocol conditions: Sprague-Dawley, blood, 10 mg/kg oral prodrug ester, 8 hr AUC of bio-active substance, no unit in table (b280 micromole*hr)
- Description: The relative ability of the prodrug to enhance exposure (bioavailability) was assessed in an eight hour PK study using cannulated SPRAGUE DAWLEY® (CD, Charles River Breeding Laboratory) rats. The compounds (parent and pro-drug esters) were administered p.o. at 2.0 ml/kg as a suspension in 0.5% methyl cellulose, 0.1% Tween 80 in water at 10 mg/kg p.o. Blood samples were taken at 1, 2, 4 and 8 hr. After determination of parent concentration, an AUC was calculated for the eight hour study.
Give bare numbers, in µM·h.

I'm hoping you can list AUC for every molecule here, please.
1. CCS(=O)(=O)CC(O)COc1ccc(-n2cnc3cc(-c4ccc(Cl)cc4)sc3c2=O)cc1OC (stereo not drawn)
2. COc1cc(-n2cnc3cc(-c4ccc(Cl)cc4)sc3c2=O)ccc1OCC(O)CC(F)(F)F (stereo not drawn)
3. COc1cc(-n2cnc3cc(-c4ccc(Cl)cc4)sc3c2=O)ccc1OCC(C)(C)O
4. CCC(O)COc1ccc(-n2cnc3cc(-c4ccc(Cl)cc4)sc3c2=O)cc1OC (stereo not drawn)

46
20
45
14.5

I'm hoping you can list AUC for every molecule here, please.
1. COc1cc(-n2cnc3cc(-c4ccc(Cl)cc4)sc3c2=O)ccc1OC[C@H](O)C1CC1
2. COc1cc(-n2cnc3cc(-c4ccc(Cl)cc4)sc3c2=O)ccc1OCC1(O)CC(F)(F)C1

[24.5, 38]

====

Would you kindly list Kp for each of these compounds?
- Measurement protocol: Rat PK model / eight hour PK study after oral prodrug ester
- Type: in vivo
- Protocol conditions: Sprague-Dawley, brain and plasma, 10 mg/kg oral dose of amino acid ester prodrug (valine or glycine), bio-active substance
Numbers only.

Solved cases (5 shown):
[
  {
    "Compound": "COc1cc(-n2cnc3cc(-c4ccc(Cl)cc4)sc3c2=O)ccc1OCC(C)(C)O",
    "Measurement label": "Kp",
    "Measured result": 2
  },
  {
    "Compound": "CCS(=O)(=O)CC(O)COc1ccc(-n2cnc3cc(-c4ccc(Cl)cc4)sc3c2=O)cc1OC (stereo not drawn)",
    "Measurement label": "Kp",
    "Measured result": 0.09
  },
  {
    "Compound": "CCC(O)COc1ccc(-n2cnc3cc(-c4ccc(Cl)cc4)sc3c2=O)cc1OC (stereo not drawn)",
    "Measurement label": "Kp",
    "Measured result": 3.2
  },
  {
    "Compound": "COc1cc(-n2cnc3cc(-c4ccc(Cl)cc4)sc3c2=O)ccc1OC[C@H](O)C1CC1",
    "Measurement label": "Kp",
    "Measured result": 0.9
  },
  {
    "Compound": "COc1cc(-n2cnc3cc(-c4ccc(Cl)cc4)sc3c2=O)ccc1OCC(O)CC(F)(F)F (stereo not drawn)",
    "Measurement label": "Kp",
    "Measured result": 1.1
  }
]

Moving on to another compound below.
Measured Kp of COc1cc(-n2cnc3cc(-c4ccc(Cl)cc4)sc3c2=O)ccc1OCC1(O)CC(F)(F)C1 : 2.5
